System: OVCAR-8 ovarian
ASSAY EXPLANATION: NCI-60 one-dose screen, 48 h (100 = growth as untreated, 0 = no growth, -100 = all killed)
ASSAY CONTEXT: 10 µM
The panel holds about 83,000 compounds, 20% with a hit somewhere; the sample as a whole holds those more often.
Response key: Met means growth >= 20%; Not met means growth < 20%.

MOLECULE: Cc1c(C(=O)N[C@H](CO)Cc2ccccc2)[nH]c2ccc(Cl)cc2c1=O
GROUP LABEL: Met
--
MOLECULE: COc1ccc(Cn2cc3c(c2-c2cc(OC)c(OC)c(OC)c2)CCc2cnoc2-3)cc1N
GROUP LABEL: Met
--
MOLECULE: O=C(OCC1OC(n2cc(C(F)(F)F)c(=O)[nH]c2=O)CC1OC(=O)c1ccc([N+](=O)[O-])cc1)c1ccc([N+](=O)[O-])cc1 (stereo not given)
GROUP LABEL: Met
--
MOLECULE: Cc1cc(C(C)(C)CC(C)(C)C)ccc1OCCOCC[N+](C)(C)Cc1ccccc1
GROUP LABEL: Not met
--
MOLECULE: Nc1ccc(C2=CC(c3ccc(Cl)cc3)N3C=CSC3=N2)cc1 (stereo not given)
GROUP LABEL: Not met
--
MOLECULE: c1ccc(OCCC[P+](c2ccccc2)(c2ccccc2)c2ccccc2)cc1
GROUP LABEL: Not met
--
MOLECULE: Cc1ccc2nc3[nH]c(=O)[nH]c(=O)c3c(N)c2c1
GROUP LABEL: Met
--
MOLECULE: C#CCn1c(-c2cccc(OCCCCl)c2)nc2c1c(=O)n(C)c(=O)n2C
GROUP LABEL: Met
--
MOLECULE: Cn1cnc([N+](=O)[O-])c1/C=C1\Oc2ccc(Cl)cc2C1=O
GROUP LABEL: Met
--
MOLECULE: COc1cc([C@@H]2c3cc4c(cc3[C@H](SC(=N)N)[C@H]3COC(=O)[C@H]23)OCO4)cc(OC)c1OC
GROUP LABEL: Met
--
MOLECULE: Cc1cccc2c(Nc3ccc(NS(C)(=O)=O)cc3)c3ccc([N+](=O)[O-])cc3nc12
GROUP LABEL: Not met
--
MOLECULE: COc1cccc(-c2nnc(COc3ccc(-c4nc5ccc(C)cc5[nH]4)cc3OC)o2)c1
GROUP LABEL: Met
--
MOLECULE: O=C(CCl)N1c2ccccc2Sc2ccc3ccccc3c21
GROUP LABEL: Not met
--
MOLECULE: O=NN(CCCl)C(=O)NCc1ccc(-c2ccc(CNC(=O)N(CCCl)N=O)cc2)cc1
GROUP LABEL: Met
--
MOLECULE: COc1cc(-c2cc(-c3cc(OC)c(OC)c(OC)c3)nc3nc(N)[nH]c(=O)c23)ccc1Oc1ccnc2cc(Cl)ccc12
GROUP LABEL: Met
--
MOLECULE: O=C(NCCCl)c1cc(Cl)cc(Cl)c1
GROUP LABEL: Met
--
MOLECULE: NC1CCC(Nc2nc(NCc3ccc(-c4ccccc4O)nc3)c3ncn(C4CCCC4)c3n2)CC1 (stereo not given)
GROUP LABEL: Not met
--
MOLECULE: COc1ccc(-c2cc(/C=C/C(=O)c3ccc(N)cc3)[nH]n2)cc1OC
GROUP LABEL: Not met
--
MOLECULE: O=C(/C=C/c1nnc2n(Cc3ccccc3)c(=O)c3c4c(sc3n12)CCCC4)c1ccccc1
GROUP LABEL: Not met
--
MOLECULE: COc1ccccc1NC1=C(N2CCCCC2)C(=O)c2ccccc2C1=O
GROUP LABEL: Met
--
MOLECULE: O=c1ccc2nc(-c3ccccc3)nn(-c3ccccc3)c-2c1
GROUP LABEL: Not met
--
MOLECULE: C[C@]12CC[C@H]3[C@@H](CCC4=CC(=O)CC[C@@]43C)[C@@H]1CC[C@@H]2c1csc(N)n1
GROUP LABEL: Met
--
MOLECULE: COc1ccc(C(C)=O)cc1N1C(=O)C2C(C1=O)C1(c3ccccc3)C(=O)C2(c2ccccc2)C(c2ccc(C)cc2)=C1c1ccc(C)cc1 (stereo not given)
GROUP LABEL: Not met
--
MOLECULE: CN(C)c1ccc2cc(-c3cc4c(oc3=O)-c3ccccc3OC4O)c(=O)oc2c1 (stereo not given)
GROUP LABEL: Not met
--
MOLECULE: C=CCc1cc(Nc2c3ccc(Cl)cc3nc3ccc(OC)cc23)cc(CN(CC)CC)c1O
GROUP LABEL: Not met
--
MOLECULE: COc1ccc(-c2nc(-c3nc4ccc(OC)cc4[nH]3)c3ccccn23)cc1
GROUP LABEL: Met
--
MOLECULE: O=C(Nc1ccc(CN2CCOCC2)cc1)c1ccc(-c2cc(Cl)ccc2Cl)o1
GROUP LABEL: Met
--
MOLECULE: CCN(Cc1ccccc1)C1CCN(Cc2cc(Br)ccc2O)CC1
GROUP LABEL: Met
--
MOLECULE: COc1cc2ccnc(C=O)c2cc1OC
GROUP LABEL: Met
--
MOLECULE: C#C[C@]1(O)CC[C@H]2[C@@H]3CC[C@H]4CC(F)(F)CC[C@]4(C)[C@H]3CC[C@@]21C
GROUP LABEL: Met
